Catalogue of LD₅₀ Value Intraperitoneal values
- Tested on: Jcl:ICR mice
- runDescription: Acute toxicity (LD50, Litchfield-Wilcoxon)
- Format: in vivo
- conditionDescription: intraperitoneal, in physiological saline solution, observed 7 days

[
  {
    "molecule": "O=C(O)c1ccc(NC2O[C@H](CO)[C@H](O)[C@H](O)[C@H]2O)cc1 (stereo partly drawn) [Compound 14, p-Aminobenzoic acid-N-D-galactoside]",
    "LD₅₀ Value Intraperitoneal [mg/kg]": 12000
  },
  {
    "molecule": "O=C(O)c1ccccc1NC1OC[C@@H](O)[C@H](O)[C@H]1O (stereo partly drawn) [Compound 8, o-Aminobenzoic acid-N-D-xyloside]",
    "LD₅₀ Value Intraperitoneal [mg/kg]": 9270
  },
  {
    "molecule": "O=C([O-])c1ccccc1NC1O[C@H](CO)[C@@H](O)[C@H](O)[C@H]1O.[Na+] (stereo partly drawn) [Compound 12, o-Aminobenzoic acid-N-D-glucoside]",
    "LD₅₀ Value Intraperitoneal [mg/kg]": 13380
  }
]

###

- Test system: Bacillus subtilis M45
- runDescription: Mutagenicity Rec-assay, recombination repair deficient strain
- conditionDescription: 5,000 µg/disk; difference between strains
Catalogue of Growth Inhibited Area M45 - H17 values
reportedProperty: Growth Inhibited Area M45 - H17 (mm)

[
  {
    "molecule": "C[C@@H]1OC(Nc2ccc(C(=O)O)cc2)[C@H](O)[C@H](O)[C@H]1O (stereo partly drawn) [Compound 18, p-Aminobenzoic acid-N-L-rhamnoside]",
    "measuredValue": 0
  },
  {
    "molecule": "O=C(O)c1ccc(NC2OC[C@H](O)[C@H](O)[C@H]2O)cc1 (stereo partly drawn) [Compound 2, p-Aminobenzoic acid-N-L-arabinoside]",
    "measuredValue": 0
  },
  {
    "molecule": "O=C(O)c1ccc(NC2O[C@H](CO)[C@@H](O)[C@H](O)[C@H]2O)cc1 (stereo partly drawn) [Compound 10, p-Aminobenzoic acid-N-D-glucoside]",
    "measuredValue": 0
  },
  {
    "molecule": "O=C(O)c1cccc(NC2O[C@H](CO)[C@@H](O)[C@H](O)[C@@H]2O)c1 (stereo partly drawn) [Compound 24, m-Aminobenzoic acid-N-D-mannoside]",
    "measuredValue": 6
  },
  {
    "molecule": "O=C(O)c1ccc(NC2O[C@H](CO)[C@@H](O)[C@H](O)[C@@H]2O)cc1 (stereo partly drawn) [Compound 22, p-Aminobenzoic acid-N-D-mannoside]",
    "measuredValue": 0
  },
  {
    "molecule": "O=C([O-])c1ccccc1NC1OCC(O)C(O)C1O.[Na+] [Compound 4, o-Aminobenzoic acid-N-L-arabinoside]",
    "measuredValue": 4
  }
]

###

- System: Wistar male rats
- runDescription: Saccharide tolerance test (pancreas function) of rats given CsA with the present substance
- Assay type: in vivo
- conditionDescription: CsA 25 mg/kg/day i.p. 3 weeks plus present substance 300 mg/kg/day orally
Catalogue of Insuline Value 10 Min.After The Test values
reportedProperty: Insuline Value 10 Min.After The Test (mµ/ml)

[
  {
    "compound": "O=C([O-])c1ccccc1NC1O[C@H](CO)[C@H](O)[C@H](O)[C@H]1O.[Na+] (stereo partly drawn) [Compound 16, o-Aminobenzoic acid-N-D-galactoside]",
    "reportedProperty": "Insuline Value 10 Min.After The Test",
    "unitName": "mµ/ml",
    "measuredValue": 6.16
  },
  {
    "compound": "O=C(O)c1ccccc1NC1OC[C@@H](O)[C@H](O)[C@H]1O (stereo partly drawn) [Compound 8, o-Aminobenzoic acid-N-D-xyloside]",
    "reportedProperty": "Insuline Value 10 Min.After The Test",
    "unitName": "mµ/ml",
    "measuredValue": 6.18
  },
  {
    "compound": "O=C(O)c1cccc(NC2O[C@H](CO)[C@@H](O)[C@H](O)[C@@H]2O)c1 (stereo partly drawn) [Compound 24, m-Aminobenzoic acid-N-D-mannoside]",
    "reportedProperty": "Insuline Value 10 Min.After The Test",
    "unitName": "mµ/ml",
    "measuredValue": 6.37
  }
]

###

Catalogue of No. of Reversion Colony TA100 values
- Test system: TA100 of Salmonella typhimurium
- runDescription: Reversion assay (reversion colony test) TA100
- Assay type: cell-based
- conditionDescription: 5,000 µg/disk, 37°C for 2 days; Drug-free Control 149

[
  {
    "compound": "C[C@@H]1OC(Nc2ccc(C(=O)O)cc2)[C@H](O)[C@H](O)[C@H]1O (stereo partly drawn) [Compound 18, p-Aminobenzoic acid-N-L-rhamnoside]",
    "tgt": "TA100 of Salmonella typhimurium",
    "unitName": "n/plate",
    "No. of Reversion Colony TA100": 73
  },
  {
    "compound": "CC1OC(Nc2ccccc2C(=O)[O-])C(O)C(O)C1O.[Na+] [Compound 20, o-Aminobenzoic acid-N-L-rhamnoside]",
    "tgt": "TA100 of Salmonella typhimurium",
    "unitName": "n/plate",
    "No. of Reversion Colony TA100": 61
  },
  {
    "compound": "O=C(O)c1ccc(NC2OC[C@@H](O)[C@H](O)[C@H]2O)cc1 (stereo partly drawn) [Compound 6, p-Aminobenzoic acid-N-D-xyloside]",
    "tgt": "TA100 of Salmonella typhimurium",
    "unitName": "n/plate",
    "No. of Reversion Colony TA100": 58
  },
  {
    "compound": "O=C([O-])c1ccccc1NC1O[C@H](CO)[C@H](O)[C@H](O)[C@H]1O.[Na+] (stereo partly drawn) [Compound 16, o-Aminobenzoic acid-N-D-galactoside]",
    "tgt": "TA100 of Salmonella typhimurium",
    "unitName": "n/plate",
    "No. of Reversion Colony TA100": 151
  },
  {
    "compound": "O=C(O)c1ccc(NC2OC[C@H](O)[C@H](O)[C@H]2O)cc1 (stereo partly drawn) [Compound 2, p-Aminobenzoic acid-N-L-arabinoside]",
    "tgt": "TA100 of Salmonella typhimurium",
    "unitName": "n/plate",
    "No. of Reversion Colony TA100": 51
  },
  {
    "compound": "O=C(O)c1ccc(NC2O[C@H](CO)[C@@H](O)[C@H](O)[C@@H]2O)cc1 (stereo partly drawn) [Compound 22, p-Aminobenzoic acid-N-D-mannoside]",
    "tgt": "TA100 of Salmonella typhimurium",
    "unitName": "n/plate",
    "No. of Reversion Colony TA100": 138
  }
]
